Assign Inflexion point to each entry below.
biological target: T1, full-length human Tim3 on cells (CHO-K1 stably transfected with plasmid 15312_hTIM3-fl_pUC_Neo) (human, UniProt Q8TDQ0 22-301); experiment: cellular ELISA on CHO-TIM3
T1 construct: Also used as the target of the MLR read-outs (native TIM-3); also called CHO-Tim3; CHO-TIM3
Numbers only, in ng/mL.

Batch request: Inflexion point per item, same order as input.
1. Tim3_0018MutNQ (antibody, V domains shown) VH: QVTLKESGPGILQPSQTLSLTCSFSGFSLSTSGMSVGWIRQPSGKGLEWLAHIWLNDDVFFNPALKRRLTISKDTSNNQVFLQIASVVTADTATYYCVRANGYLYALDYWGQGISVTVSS VL: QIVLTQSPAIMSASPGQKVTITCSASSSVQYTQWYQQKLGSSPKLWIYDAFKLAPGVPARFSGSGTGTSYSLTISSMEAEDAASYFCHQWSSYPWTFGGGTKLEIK
2. Tim3_0018MutNS (antibody, V domains shown) VH: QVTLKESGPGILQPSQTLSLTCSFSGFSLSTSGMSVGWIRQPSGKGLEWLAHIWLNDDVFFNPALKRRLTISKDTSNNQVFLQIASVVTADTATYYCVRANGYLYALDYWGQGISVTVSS VL: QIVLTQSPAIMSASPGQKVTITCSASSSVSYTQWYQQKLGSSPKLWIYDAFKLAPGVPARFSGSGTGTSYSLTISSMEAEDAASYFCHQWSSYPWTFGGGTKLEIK
3. Tim3_0016 variant (0018) (antibody, V domains shown, Mouse monoclonal antibody; also called Tim3_0018; Tim3 0018) VH: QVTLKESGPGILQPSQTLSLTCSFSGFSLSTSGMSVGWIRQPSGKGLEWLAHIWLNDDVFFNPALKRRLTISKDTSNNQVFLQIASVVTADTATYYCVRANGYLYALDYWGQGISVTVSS VL: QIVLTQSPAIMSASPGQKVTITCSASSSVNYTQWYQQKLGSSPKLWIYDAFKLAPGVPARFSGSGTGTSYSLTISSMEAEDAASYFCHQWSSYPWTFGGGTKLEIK
4. Tim3_0016MutNQ (antibody, V domains shown) VH: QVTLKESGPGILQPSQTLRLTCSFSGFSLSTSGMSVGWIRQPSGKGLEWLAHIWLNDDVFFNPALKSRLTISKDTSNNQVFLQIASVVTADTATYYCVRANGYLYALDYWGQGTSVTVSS VL: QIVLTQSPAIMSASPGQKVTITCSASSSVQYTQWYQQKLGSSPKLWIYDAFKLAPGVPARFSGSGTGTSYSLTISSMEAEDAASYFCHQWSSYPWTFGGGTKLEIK
5. Tim3_0016MutNS (antibody, V domains shown) VH: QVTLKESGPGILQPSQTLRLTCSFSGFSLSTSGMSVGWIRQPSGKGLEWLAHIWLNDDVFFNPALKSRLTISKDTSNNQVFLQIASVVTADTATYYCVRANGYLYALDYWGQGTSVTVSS VL: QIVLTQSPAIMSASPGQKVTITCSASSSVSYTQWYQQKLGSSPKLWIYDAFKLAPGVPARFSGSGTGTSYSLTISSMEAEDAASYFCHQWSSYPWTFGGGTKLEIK

1: 12.8; 2: 11.1; 3: 29.4; 4: 5.4; 5: 8.5
